conditions: male, Sprague-Dawley Crl:CD(SD), in vivo
MEASURE NAME: Rat unbound CL (mL/min/kg)

Reference set (2 entries):
>  <MOLECULE>
CN1C(=O)[C@@H](NC(=O)c2nnc(Cc3ccccc3)o2)COc2cccnc21

>  <UNIT OF MEASURE>
mL/min/kg

>  <Rat unbound CL>
61

$$$$
>  <MOLECULE>
CN1C(=O)[C@@H](NC(=O)c2nnc(Cc3ccccc3)[nH]2)COc2ccccc21 [A, reference compound]

>  <UNIT OF MEASURE>
mL/min/kg

>  <Rat unbound CL>
77

$$$$

P: CN1C(=O)[C@@H](NC(=O)c2nnc(Cc3ccccc3)[nH]2)[C@H]2C[C@H]2c2cccnc21 [Example 75A]
Q: C[C@H]1Oc2cccnc2N(C)C(=O)[C@H]1NC(=O)c1nn(Cc2ccccc2)cc1F
Which value of Rat unbound CL is greater, the one for P or the one for Q ? Kindly give the label for the entry you pick. Q

* * *

assay: Metabolic stability (hepatocytes); assay type: in vitro ADME; conditions: human cryopreserved hepatocytes, well-stirred model
MEASURE NAME: Human hepatocyte CLhep Avg (mL/min/kg)

>  <MOLECULE>
O=C(N[C@@H]1C(=O)Nc2c(F)cc(F)cc2[C@@H]2C[C@H]12)c1nnc(Cc2ccccc2)[nH]1 [Example 83A]

>  <Human hepatocyte CLhep Avg [mL/min/kg]>
1.0

$$$$

a: CN1C(=O)[C@@H](NC(=O)c2nnc(Cc3ccccc3)[nH]2)[C@H]2C[C@H]2c2cccnc21 [Example 75A]
b: CN1C(=O)[C@@H](NC(=O)c2nnc(C3(c4ccccc4)CC3)o2)COc2cccnc21
Which value of Human hepatocyte CLhep Avg is greater, the one for a or the one for b ? Kindly give the label for the entry you pick. a
(a: 9.1 mL/min/kg, b: 6.3 mL/min/kg)

* * *

conditions: male, cynomolgus monkey, in vivo
MEASURE NAME: Cyno unbound CL (mL/min/kg)

>  <MOLECULE>
CN1C(=O)[C@@H](NC(=O)c2nnc(Cc3ccccc3)o2)COc2cccnc21 [Example 146]

>  <UNIT OF MEASURE>
mL/min/kg

>  <Cyno unbound CL>
39

$$$$
>  <MOLECULE>
CN1C(=O)[C@@H](NC(=O)c2nnc(Cc3ccccc3)[nH]2)[C@H]2C[C@H]2c2cccnc21 [Example 75A]

>  <UNIT OF MEASURE>
mL/min/kg

>  <Cyno unbound CL>
93

$$$$

1: O=C(N[C@@H]1C(=O)Nc2c(F)cc(F)cc2[C@@H]2C[C@H]12)c1nnc(Cc2ccccc2)[nH]1 [Example 83A]
2: C[C@H]1Oc2cccnc2N(C)C(=O)[C@H]1NC(=O)c1nnc(Cc2ccccc2)o1 [Example 134]
3: C[C@H]1Oc2cccnc2N(C)C(=O)[C@H]1NC(=O)c1nnc(Cc2ccccc2)[nH]1 [Example 94]
Hello, I need these entries ordered by Cyno unbound CL, highest reading first. Thanks! // ordering of labels required in reply 2, 1, 3

* * *

assay: Metabolic stability (hepatocytes); assay type: in vitro ADME; settings: human cryopreserved hepatocytes, well-stirred model
MEASURE NAME: Human hepatocyte CLhep Avg (mL/min/kg)

P: CN1C(=O)[C@@H](NC(=O)c2nnc(Cc3ccccc3)[nH]2)COc2cccnc21
Q: CN1C(=O)[C@@H](NC(=O)c2cc(C3(c4ccccc4)CC3)on2)COc2cccnc21
Which value of Human hepatocyte CLhep Avg is greater, the one for P or the one for Q ? Kindly give the label for the entry you pick. Q

a: CN1C(=O)[C@@H](NC(=O)c2nnc(Cc3ccccc3)[nH]2)COc2ccccc21 [A, reference compound]
b: CN1C(=O)[C@@H](NC(=O)c2cc(Cc3ccccc3)on2)COc2ccccc21 [C, reference compound]
Please let me know which one, a or b , has a lower measured Human hepatocyte CLhep Avg value. Kindly give the label for the entry you pick. a
(a: 6.8 mL/min/kg, b: 19 mL/min/kg)

Cited source: patent US9896458B2
